Subject Of Test: the molecule itself
Method Notes: AUC; fluorescence sedimentation velocity (GFP signal at 488 nm), 22°C; dilution series from about 500 to about 0.5 nM (monomer equivalents); 20 mM Tris-HCl pH 7.5, 300 mM NaCl, 0.2 mg/ml BSA, 2 mM DTT or 0.1 mM TCEP; samples incubated 16 hours at 22°C; dimer to monomers; apparent Kd

{"columns": ["Protein", "Kd (nM)"],
 "data": [
  ["EB3c-GFP (C-terminal domain of human EB3, Ala200-Tyr281, C-terminally EGFP-His-tagged) (domain or fragment, UniProt Q9UPY8 200-281, looked up, Calculated monomer mass 38.7 kDa; also called C-terminal domain of EB3; not shown: EGFP, C-terminal, kept) AQILELNQQLVDLKLTVDGLEKERDFYFSKLRDIELICQEHESENSPVISGIIGILYATEEGFAPPEDDEIEEHQQEDQDEY", 2]
]}

From: paper PMC3765442
